System Under Test: hCA IX (Homo sapiens)
Test Protocol: Stopped-flow CA-catalyzed CO2 hydration inhibition assay
Recorded Conditions: stopped flow technique, mean from three different assays, recombinant enzyme, pH 7.4
pKi: −log10 of the molar value.
Outcome label depends on pKi relative to 6: at/above gives Satisfied, below gives Not satisfied.

Problem: # bool: pKi of Cc1ccc2c(=O)cc(C(=O)Nc3ccc(S(N)(=O)=O)cc3)oc2c1 >= 6
Result: Satisfied

Problem: # bool: pKi of NS(=O)(=O)c1ccc(CCNC(=O)c2cc(=O)c3cc(Cl)ccc3o2)cc1 >= 6
Result: Not satisfied

Problem: # bool: pKi of Cc1ccc2oc(C(=O)NCc3ccc(S(N)(=O)=O)cc3)cc(=O)c2c1 >= 6
Result: Not satisfied

Problem: # bool: pKi of Cc1ccc2c(=O)cc(C(=O)NCCc3ccc(S(N)(=O)=O)cc3)oc2c1C >= 6
Result: Satisfied

Problem: # bool: pKi of CCc1ccc2oc(C(=O)NCCc3ccc(S(N)(=O)=O)cc3)cc(=O)c2c1 >= 6
Result: Satisfied

Problem: # bool: pKi of NS(=O)(=O)c1ccc(CNC(=O)c2cc(=O)c3cc(Cl)ccc3o2)cc1 >= 6
Result: Not satisfied

Problem: # bool: pKi of NS(=O)(=O)c1ccc(NC(=O)c2cc(=O)c3ccccc3o2)cc1 >= 6
Result: Satisfied

Problem: # bool: pKi of Cc1cc2oc(C(=O)Nc3ccc(S(N)(=O)=O)cc3)cc(=O)c2cc1Cl >= 6
Result: Satisfied

====

Task for the reader: assign each of the following compounds its reported pKi.
System Under Test: hCA XII (Homo sapiens, UniProt O43570)
Construct: made in house
Sequence (O43570 25-354): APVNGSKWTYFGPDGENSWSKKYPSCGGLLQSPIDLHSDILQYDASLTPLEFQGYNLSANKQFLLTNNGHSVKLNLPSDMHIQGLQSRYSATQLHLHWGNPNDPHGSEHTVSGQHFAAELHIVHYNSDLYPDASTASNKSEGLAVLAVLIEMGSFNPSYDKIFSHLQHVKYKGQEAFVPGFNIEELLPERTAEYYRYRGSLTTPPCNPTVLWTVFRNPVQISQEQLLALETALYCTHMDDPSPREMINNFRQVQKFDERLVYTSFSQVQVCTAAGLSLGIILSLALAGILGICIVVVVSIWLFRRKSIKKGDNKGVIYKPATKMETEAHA
Test Protocol: Stopped-flow CA-catalyzed CO2 hydration inhibition assay
Type: biochemical
Recorded Conditions: stopped flow technique, mean from three different assays, recombinant enzyme, pH 7.4
In plain terms, pKi is the concentration in mol/L turned into minus its base-10 logarithm.

Lab book: pKi of Cc1cc(C)c2c(=O)cc(C(=O)Nc3ccc(S(N)(=O)=O)cc3)oc2c1 noted as 7.33

Lab book: pKi of Cc1ccc2c(=O)cc(C(=O)Nc3ccc(S(N)(=O)=O)cc3)oc2c1 noted as 7.29

Lab book: pKi of Cc1ccc2c(=O)cc(C(=O)NCCc3ccc(S(N)(=O)=O)cc3)oc2c1 noted as 6.47

Lab book: pKi of Cc1cc(C)c2oc(C(=O)Nc3ccc(S(N)(=O)=O)cc3)cc(=O)c2c1 noted as 7.57

Lab book: pKi of Cc1ccc2oc(C(=O)NCCc3ccc(S(N)(=O)=O)cc3)cc(=O)c2c1 noted as 6.36

Lab book: pKi of Cc1ccc2oc(C(=O)NCc3ccc(S(N)(=O)=O)cc3)cc(=O)c2c1 noted as 6.49

Lab book: pKi of NS(=O)(=O)c1ccc(CNC(=O)c2cc(=O)c3cc(Cl)ccc3o2)cc1 noted as 7.23

Lab book: pKi of NS(=O)(=O)c1ccc(NC(=O)c2cc(=O)c3ccccc3o2)cc1 noted as 7.70

Lab book: pKi of Cc1cc2oc(C(=O)Nc3ccc(S(N)(=O)=O)cc3)cc(=O)c2cc1C noted as 6.21

Lab book: pKi of Cc1cc2oc(C(=O)Nc3ccc(S(N)(=O)=O)cc3)cc(=O)c2cc1Cl noted as 6.81

Lab book: pKi of Cc1ccc2c(=O)cc(C(=O)NCCc3ccc(S(N)(=O)=O)cc3)oc2c1C noted as 6.88

Lab book: pKi of NS(=O)(=O)c1ccc(CCNC(=O)c2cc(=O)c3cc(Cl)ccc3o2)cc1 noted as 7.38

Lab book: pKi of Cc1ccc2oc(C(=O)Nc3ccc(S(N)(=O)=O)cc3)cc(=O)c2c1 noted as 7.19

Lab book: pKi of NS(=O)(=O)c1ccc(NC(=O)c2cc(=O)c3cc(Cl)ccc3o2)cc1 noted as 6.37

Lab book: pKi of Cc1ccc2c(=O)cc(C(=O)Nc3ccc(S(N)(=O)=O)cc3)oc2c1C noted as 7.12

Lab book: pKi of NS(=O)(=O)c1ccc(CCNC(=O)c2cc(=O)c3ccccc3o2)cc1 noted as 6.67

Lab book: pKi of Cc1cc2oc(C(=O)NCCc3ccc(S(N)(=O)=O)cc3)cc(=O)c2cc1C noted as 7.65

Lab book: pKi of NS(=O)(=O)c1ccc(CNC(=O)c2cc(=O)c3ccccc3o2)cc1 noted as 7.47

Lab book: pKi of Cc1cc(C)c2oc(C(=O)NCCc3ccc(S(N)(=O)=O)cc3)cc(=O)c2c1 noted as 7.50

Lab book: pKi of CCc1ccc2oc(C(=O)NCCc3ccc(S(N)(=O)=O)cc3)cc(=O)c2c1 noted as 6.83
